Reported inhibition is given for each of the following compounds.
Biological target: Nuclear receptor coactivator 2 (Homo sapiens)
Assay: SRC2 coactivator transcriptional activity inhibitors, confirmation, cell-based, luminescence, HEK293, triplicate (AID 652008);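 also: 0% = DMSO-treated cells and 100% = Gossypol at 36 µM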
Settings: HEK293 GAL4-SRC2 luciferase reporter, at 8.9 µM, active compounds read high
API: value field is a number in %; no unit string.

Example cases with answers are listed next.
COMPOUND	RESULT UNIT	inhibition
O=C(Nc1ccc(OC(F)(F)F)cc1)c1ccc2c(c1)no[n+]2[O-]	%	-55.7
Cc1ccccc1C(=O)N/N=C/c1ccc([N+](=O)[O-])s1	%	63.1
CC(C)Nc1ncnc2ccc(Br)cc12	%	65.7
COc1cc(C)c(Br)cc1S(=O)(=O)NCc1cccs1	%	-12.6
CCCCCN1C=CC(=C2C(=O)c3ccccc3C2=O)C=C1	%	77.3

Need inhibition of `N=c1c2c3c(sc2ncn1N)CCCCC3` , thanks. -23.5

Query CCOC(=O)C(C(=O)OCC)C(Nc1cccc(Br)c1)c1ccccc1 (configuration not stated) next 19.3

Query CC(C)=CCc1c(O)ccc2c1OC(c1ccc(O)c(O)c1)CC2=O (configuration not stated) next 56.9

Query `COc1ccc(OC)c(-n2nnnc2SCC(=O)Nc2cc(C)ccc2OC)c1` next 2.63

Query `O=C(CCl)Nc1ccccc1C(=O)NCc1ccccc1` next 42.9

Query `CC(=O)Nc1ccc(S(=O)(=O)Nc2ccc(N3CCCCC3)cc2)cc1` next 14.9

Query `Cc1cc(Cl)ccc1OCCCC(=O)NO` next 32.7

Query `CCc1ccc(-c2nc(CSCC(=O)NCc3ccco3)c(C)o2)cc1` next 70.5

Query `O=S(=O)(c1ccc(NC(=S)NCc2ccncc2)cc1)N1CCCCC1` next 0.63

Query CN1c2ccccc2C(C)(C)C12C=Cc1cc(O)ccc1O2 (configuration not stated) next 23.8

Query `CCc1ccn2cc(-c3cc(-c4ccccc4)no3)nc2c1` next 61.6

Query `CCOC(=O)C1=C[C@@H](c2ccccc2)N(S(=O)(=O)c2ccc(C)cc2)[C@H]1c1ccc(F)cc1` next -5.87

====

Reported inhibition is given for each of the following compounds.
Target: Steroidogenic factor 1 (Homo sapiens) (UniProt Q13285)
Sequence (Q13285 whole entry, looked up): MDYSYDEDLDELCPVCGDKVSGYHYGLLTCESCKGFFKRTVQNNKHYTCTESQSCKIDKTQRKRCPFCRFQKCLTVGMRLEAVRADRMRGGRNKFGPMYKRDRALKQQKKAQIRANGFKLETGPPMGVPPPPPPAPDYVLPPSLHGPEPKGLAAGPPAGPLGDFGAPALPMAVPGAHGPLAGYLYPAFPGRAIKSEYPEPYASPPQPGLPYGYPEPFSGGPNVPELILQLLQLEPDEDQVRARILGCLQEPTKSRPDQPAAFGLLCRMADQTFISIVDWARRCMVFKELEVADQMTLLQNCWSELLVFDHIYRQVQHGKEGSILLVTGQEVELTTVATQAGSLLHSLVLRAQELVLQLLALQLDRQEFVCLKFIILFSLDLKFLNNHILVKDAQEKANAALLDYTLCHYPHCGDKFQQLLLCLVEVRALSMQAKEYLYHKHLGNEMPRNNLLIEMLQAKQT
Test: SF1 (NR5A1) inverse agonists, counter-screen for LRH-1 inverse agonist project, cell-based, luminescence, high throughput (AID 651614);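 also: cells cotransfected with StAR promoter reporter and SF1 expression vector; 0% = vehicle on cells with receptor and 100% = vehicle on cells lacking receptor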
Conditions: cell-based SF1 luciferase reporter, at 3.6 µM, active compounds read high
API: value field is a number in %; no unit string.

COMPOUND	RESULT UNIT	REPORTED MEASUREMENT
COc1ccc(NC(=O)COc2cccc3c2CCN(C)C3=O)c(OC)c1	%	61.6
Cc1cc2c(=Cc3ccc(N(C)C)cc3)c3ccccc3n2[n+]1C	%	89.4
CCOC(=O)N1CCc2cc(OC)c(OC)c3c2c1cc1cc(OC)c(OC)cc13	%	67.3

Need inhibition of `C=CS(=O)(=O)N(Cc1ccccc1Br)[C@H](CO)Cc1ccccc1` , thanks. 48.7

Query `O=C(Cn1cnc2c(nnn2-c2ccccc2)c1=O)NCCc1ccccc1` next 51

Query `O=C(Cc1cccs1)N/N=C\c1ccc([N+](=O)[O-])s1` next 56.4

Query `COc1ccc(C2=CC(=O)CC(C)(C)C2)cc1OC` next 51.9

Query `COc1cc2c(cc1OC)CN(C(=O)c1ccc([N+](=O)[O-])o1)CC2` next 64.4

Query `COCc1cc(C)n(CC(=O)Nc2ccc(N3CCOCC3)c(Cl)c2)c(=O)c1C#N` next 40.9

Query O=C(NCC1CCCO1)c1cc2c([nH]c3ccccc32)c(-c2ccc(F)cc2)n1 (stereo unspecified) next 50.1

Query `CCc1cc(=O)oc2cc3occ(-c4ccc(OC)c(F)c4)c3cc12` next 60.6

====

Experiment: VP16 transactivation inhibitors, counter-screen for SRC1 inhibitor project, cell-based, luminescence, high throughput (AID 588824)
Details: cell-based VP16 transactivation luciferase luminescence; at 3.6 µM
Calls of active or inactive are those of the source. Cut-off read from the data, not from the text of the source: active = inhibition above about 25%; inactive = the rest.
I would appreciate it if you answered using one of these outcomes: yes (1) for active, no (0) for inactive

Example entries and their recorded answers appear below.
COMPOUND	GROUP
Cc1ccc2occ(/C=N/NC(=O)c3ccccc3O)c(=O)c2c1	no (0)
CC(=NNC(=S)Nc1ccccc1Cl)c1ccccn1	yes (1)
Cc1nc(N)nc(N)c1-c1ccc(Cl)c(Cl)c1	yes (1)
O=C(O)C1CC=CCC1C(=O)Nc1ccc2c(c1)OCCO2 (centres undefined)	no (0)
COc1ccc(C(=O)NNC(=O)C(=O)N2CCCCC2)cc1OC	no (0)

For the next question, use this compound.
What classification did C#Cc1ccc(NC(=O)C2(C)CCN2C(=O)Cc2ccc(-c3ccccc3)cc2)cc1 (centres undefined) end up with in this test? yes (1)

====

Test system: transactivating tegument protein VP16 (Human herpesvirus 1), Gal4-VP16 luciferase reporter
Experiment: VP16 transactivation inhibitors, counter-screen for SRC3 inhibitor project, cell-based, luminescence, high throughput (AID 588794)
Settings: mammalian cells, VP16-driven luciferase reporter luminescence; at 3.6 µM
Calls of active or inactive are those of the source. Cut-off read from the data, not from the text of the source: active = inhibition above about 30%; inactive = the rest.
I would appreciate it if you answered using one of these outcomes: active, inactive

Example entries and their recorded answers appear below.
MOLECULE	GROUP
COc1cccc(CNc2nc3cc(-c4cnn(Cc5ccccc5)c4)sc3c(=O)n2C)c1	active
Cc1ccc(C(=O)N(Cc2cccs2)C2CCS(=O)(=O)C2)cc1 (stereo not drawn)	inactive
CCOc1ccc(CC(=O)Nc2ccc(NC(=O)c3ccco3)cc2)cc1OCC	inactive
Cc1sc2ncnc(Sc3nnnn3-c3ccccc3)c2c1C	inactive
c1ccc(-c2cccc(-c3ccccn3)n2)nc1	active
O=C1NC(=S)N/C1=C/c1cccnc1	active
C=C1C(=O)OC2CC1C(OC(C)=O)CC(C)=CCCC(C)=CCCC2(C)O (stereo not drawn)	active
CCN(CC)c1ccc(/C=N/NC(=O)c2c(Cl)cnn2C)c(O)c1	active
O=C(CSc1nnc(-c2cccnc2)s1)Nc1ccnc2ccccc12	active
COc1cc(N(C)C)ccc1C=c1c2ccccc2n2c1cc(-c1ccccc1)[n+]2C	active

What classification did `CC(C)(C)c1ccc(C(=O)NCCOc2ccccc2F)cc1` end up with in this test? inactive

Query `Cn1ncc2c(O/N=C(\N)c3ccc(C(F)(F)F)cc3)ncnc21` next inactive

Query Cc1ccsc1C(=O)C1CCCN(Cc2cccn2-c2ccc(Cl)cn2)C1 (stereo not drawn) next inactive

====

System: transactivating tegument protein VP16 (Human herpesvirus 1)
Experiment: VP16 transactivation reporter inhibitors, counter-screen for SRC2 inhibitor project, cell-based, luminescence, single concentration (AID 652007)
Settings: cell-based VP16 transactivation luciferase reporter, at 8.9 µM, active compounds read high
EXPERIMENTAL READOUT: inhibition (%)
API: value field is a number in %; no unit string.

Example cases with answers are listed next.
COMPOUND	inhibition / %
COc1ccc(C(=O)C(CN2CCOCC2)c2ccccc2)cc1 (centres undefined)	6.4
O=[N+]([O-])c1ccc2ncnc(N3CCN(Cc4ccc5c(c4)OCO5)CC3)c2c1	8.73
OCCCNc1ncnc2scc(-c3ccc(Cl)cc3)c12	5.28

Now for another entry.
Value wanted: inhibition (transactivating tegument protein VP16 (Human herpesvirus 1)) of entry CC1=CC(C)(C)Nc2ccc(OC(=O)C(C)N3C(=O)c4ccccc4C3=O)cc21 (centres undefined) -33.8

====

Experiment: growth loss of phage-infected RecBCD+ E. coli, confirmation, RecBCD inhibitor project, absorbance, E. coli V66, T4 gene 2 phage (AID 651982)
Settings: E. coli V66 + T4 2- phage, growth OD; at 11.9 µM; active compounds read high
The other results are listed elsewhere or left out.
EXPERIMENTAL READOUT: inhibition (%)
API: value field is a number in %; no unit string.

Example cases with answers are listed next.
COMPOUND	inhibition, %
O=C(NNC(=O)c1ccccc1O)c1ccccc1O	25.8
CCOc1ccc(Cn2nnc(C(=O)Nc3ccc(OC)cc3OC)c2N)cc1	-0.29
O=C(NC(Nc1nc2ccc([N+](=O)[O-])cc2s1)(C(F)(F)F)C(F)(F)F)c1ccccc1	8
Cn1ccc(=Nc2ccc(NC(=O)c3ccc(N=c4ccn(C)c5ccc([N+](=O)[O-])cc45)cc3)cc2)cc1	101

Need inhibition of `CCn1cc(C(=O)NCCO)c(=O)c2cc(F)c(N3CCN(C)CC3)cc21` , thanks. 103

Query NC1=NC(=O)C(Cc2cccc(Cl)c2Cl)S1 (stereo unspecified) next 0.33

Query `CCN1CCN(c2nc(Nc3cc(OC)ccc3OC)nc(Nc3cc(OC)ccc3OC)n2)CC1` next -0.69

Query CC1=C(C/C=C(\C)CCCC(C)CCCC(C)CCCC(C)C)C(=O)c2ccccc2C1=O (stereo unspecified) next 0.32

====

Test: cytotoxicity in HEK cells, cytotoxicity control for IDE inhibitor project, cell-based, luminescence (AID 449730);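 also: 0% = vehicle wells and 100% = reference cytotoxic drug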
Details: HEK293 cytotoxicity, ATP luminescence; at 5.59 µM; active compounds read high
The other results are listed elsewhere or left out.
Reported inhibition is given for each of the following compounds.
API: value field is a number in %; no unit string.

Example cases with answers are listed next.
COMPOUND	inhibition, %
Cc1cc2nc3c(=O)n(Cc4ccccc4)c(=O)[nH]c3nc2cc1N	8.2
O=C(c1cccnc1)N(c1cc2sc(=O)oc2c2ccccc12)S(=O)(=O)c1ccccc1	10.9
CN1C(=O)/C(=C/C=C2\SCCN2C)OC1=S	9.01
Cc1cc(Cl)ccc1OCCCC(=O)NCc1ccncc1	14.7
N#C/C(=C/c1ccc(N2CCCCC2)o1)C(=O)NCCc1c[nH]c2ccccc12	5.73
Fc1ccc2[nH]c3c(N4CCSCC4)ncnc3c2c1	49.2
N#C/C(=C\c1ccc(O)c(O)c1)C(=O)NCc1ccccc1	6.24
CS(=O)(=O)N(Cc1ccccc1)c1ccc(C(=O)NN=C2CCCCCC2)cc1	6.18
Cc1nn(C)cc1C(=O)c1ccccc1	5.03
CC(C)OCCCNc1ncnc2c1[nH]c1ccc(F)cc12	75.2

Need inhibition of `Nc1c(C(=O)c2cccs2)sc2nsc(SCCN3CCCCC3)c12` , thanks. 18.4

Query `COc1ccc(C(=O)Nc2nc(-c3ccc(S(=O)(=O)N4CCOCC4)cc3)cs2)cc1` next 68.2
